Please go through the items and note down their ΔH.
# TESTED_ON: MtBPL (Mycobacterium tuberculosis, UniProt I6YFP0)
# Sequence (I6YFP0 whole entry, looked up): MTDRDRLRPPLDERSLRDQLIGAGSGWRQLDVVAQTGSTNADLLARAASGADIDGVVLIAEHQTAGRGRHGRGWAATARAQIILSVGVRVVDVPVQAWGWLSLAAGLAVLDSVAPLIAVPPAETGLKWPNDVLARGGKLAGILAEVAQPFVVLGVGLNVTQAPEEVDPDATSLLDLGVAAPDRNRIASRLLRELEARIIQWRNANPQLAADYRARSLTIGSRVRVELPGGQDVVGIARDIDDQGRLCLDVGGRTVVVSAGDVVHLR
# MEASUREMENT_PARAMETERS: direct titration ITC, 25 °C
Write the answer as a number in kcal/mol, unit excluded.

## Task # query: ΔH of entry "CCN(CC)CC.C[C@@]1(O)[C@H](O)[C@@H](COS(=O)(=O)NC(=O)CCCC[C@@H]2SC[C@@H]3NC(=O)N[C@@H]32)O[C@H]1n1cnc2c(N)ncnc21"
## Result -20.3

## Task # query: ΔH of entry "CCN(CC)CC.Nc1ncnc2c1ncn2[C@@H]1C[C@H](CNS(=O)(=O)NC(=O)CCCC[C@@H]2SC[C@@H]3NC(=O)N[C@@H]32)[C@@H](O)[C@H]1O"
## Result -20.2

## Task # query: ΔH of entry "CCN(CC)CC.Nc1ncnc2c1ncn2[C@@H]1O[C@H](CNS(=O)(=O)NC(=O)CCCC[C@@H]2SC[C@@H]3NC(=O)N[C@@H]32)[C@@H](O)[C@H]1N"
## Result -19.1

## Task # query: ΔH of entry "CCN(CC)CC.Nc1ncnc2c1ncn2[C@H]1CNC[C@@H](COS(=O)(=O)NC(=O)CCCC[C@@H]2SC[C@@H]3NC(=O)N[C@@H]32)O1"
## Result -18.8

## Task # query: ΔH of entry "Nc1ncnc2c1ncn2[C@@H]1O[C@H](CNS(=O)(=O)NC(=O)CCCC[C@@H]2SC[C@@H]3NC(=O)N[C@@H]32)[C@@H](O)[C@H]1O"
## Result -18.9

The origin of these recorded values is paper PMC4667793.
